assay: Cmax in rat at 30 mg/kg, po; type: ADME, organism-based; design: dose 30 mg/kg, route oral; details: in vivo
quantity: Cmax
# include the unit after the value

Query block: Need Cmax, item Cc1cc(Nc2cc(C)c(C#N)c(NC(C)CCCC(C)(C)O)n2)n[nH]1.Cl (racemic)
Result block: 4.93 µM

* * *

biological target: Proto-oncogene tyrosine-protein kinase Src (Homo sapiens, UniProt P12931)
Sequence (P12931 2-536 limits assumed): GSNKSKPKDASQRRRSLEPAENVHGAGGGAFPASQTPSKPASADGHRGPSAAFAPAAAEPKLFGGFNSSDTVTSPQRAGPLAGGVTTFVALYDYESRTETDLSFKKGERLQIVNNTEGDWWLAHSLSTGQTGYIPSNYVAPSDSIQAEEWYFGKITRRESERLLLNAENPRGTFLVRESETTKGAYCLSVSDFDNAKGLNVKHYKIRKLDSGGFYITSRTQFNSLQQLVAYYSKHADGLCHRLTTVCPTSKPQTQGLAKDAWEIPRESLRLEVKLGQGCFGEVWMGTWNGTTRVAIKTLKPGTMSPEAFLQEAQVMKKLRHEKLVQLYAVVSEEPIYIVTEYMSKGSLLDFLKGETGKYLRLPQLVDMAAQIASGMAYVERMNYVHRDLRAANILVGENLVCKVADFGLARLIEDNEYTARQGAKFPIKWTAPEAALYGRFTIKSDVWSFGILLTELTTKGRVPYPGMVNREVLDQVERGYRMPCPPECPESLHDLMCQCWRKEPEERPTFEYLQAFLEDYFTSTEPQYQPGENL
quantity: pKi
Numbers only, as −log10 of the molar value.

Query block: Given the compound Cc1cc(Nc2cc(C)c(C#N)c(NC(C)CCCC(C)(C)O)n2)n[nH]1.Cl (racemic) , what is its reported pKi?
Result block: 7.59
